The measured values listed here are drawn from patent US20230373934A1.

assay: Microsomal stability assay, liver microsome half-life (monkey); type: in vitro ADME; details: pH 7.4; monkey liver microsomes 0.5 mg/mL + NADPH, 1 μM compound, 37° C; read-out: Liver microsome + NADPH T½ (min) Monkey
half-life at 1 μM by entry:
attributeMeasured: half-life at 1 μM

compoundSmiles: COc1c(Cl)cc(C(C)(C)c2ccc(OCc3ccnc(NS(C)(=O)=O)n3)cc2)cc1C#N
attributeMeasured: half-life at 1 μM
reportedMeasurement: > 120 min
//
compoundSmiles: CC(C)(c1ccc(OC2CC3(C2)CN(S(C)(=O)=O)C3)cc1)c1cc(Cl)c(OCCCl)c(C#N)c1
attributeMeasured: half-life at 1 μM
reportedMeasurement: > 120 min
//
compoundSmiles: CS(=O)(=O)Nc1cnc2cc(-c3ccc(Oc4cc(C#N)c(OC5CC5)c(C(F)(F)F)c4)cc3)ccc2n1
attributeMeasured: half-life at 1 μM
reportedMeasurement: > 120 min
//
compoundSmiles: CC(C)(c1ccc(-c2ccc(CNS(C)(=O)=O)nc2)cc1)c1cc(Cl)c(OCCCl)c(C#N)c1
attributeMeasured: half-life at 1 μM
reportedMeasurement: > 120 min

###

biological target: androgen receptor (AR) (Homo sapiens, UniProt P10275, T878A); construct: endogenous in cells; host or cells: LNCaP; test: Androgen-induced PSA-luciferase assay, Luciferase Assay A (LNCaP transiently transfected with PSA (6.1 kb)-luciferase reporter); format: cell-based; details: LNCaP cells, 1 h pretreatment, R1881 (1 nM) 24 h, read-out: PSA-Luc IC50 Range
Sequence (P10275 whole entry T878A): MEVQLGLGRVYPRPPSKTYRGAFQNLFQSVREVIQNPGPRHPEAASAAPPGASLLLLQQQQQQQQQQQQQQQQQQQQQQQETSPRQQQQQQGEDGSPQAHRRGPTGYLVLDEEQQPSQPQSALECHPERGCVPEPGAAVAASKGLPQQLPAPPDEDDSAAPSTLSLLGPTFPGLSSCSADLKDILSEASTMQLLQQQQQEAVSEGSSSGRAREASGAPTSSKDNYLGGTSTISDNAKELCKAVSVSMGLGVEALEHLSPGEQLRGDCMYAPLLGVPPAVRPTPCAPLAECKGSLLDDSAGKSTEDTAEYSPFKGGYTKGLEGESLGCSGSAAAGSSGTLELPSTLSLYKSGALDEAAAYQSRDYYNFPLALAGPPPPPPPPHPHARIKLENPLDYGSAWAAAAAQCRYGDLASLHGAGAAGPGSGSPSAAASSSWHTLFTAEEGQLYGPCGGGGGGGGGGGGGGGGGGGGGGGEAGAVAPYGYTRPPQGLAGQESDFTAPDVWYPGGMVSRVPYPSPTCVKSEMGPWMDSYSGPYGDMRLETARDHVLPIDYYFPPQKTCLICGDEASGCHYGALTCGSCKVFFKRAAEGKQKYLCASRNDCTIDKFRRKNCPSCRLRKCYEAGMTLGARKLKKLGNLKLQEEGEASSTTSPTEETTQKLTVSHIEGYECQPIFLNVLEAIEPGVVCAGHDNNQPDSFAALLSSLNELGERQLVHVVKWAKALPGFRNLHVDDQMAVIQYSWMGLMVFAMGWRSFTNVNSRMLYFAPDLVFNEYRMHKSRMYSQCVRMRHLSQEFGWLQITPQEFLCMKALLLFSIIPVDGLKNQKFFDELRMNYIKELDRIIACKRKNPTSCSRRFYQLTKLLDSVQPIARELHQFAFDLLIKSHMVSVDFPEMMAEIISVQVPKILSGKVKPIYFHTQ
pIC50: −log10 of the molar value.

molecule: CC(C)(c1ccc(OCc2ccnc(NS(C)(=O)=O)n2)cc1)c1cc(Cl)c(OC(F)F)c(C#N)c1
subjectOfTest: androgen receptor (AR) (Homo sapiens, UniProt P10275, T878A)
pIC50: 5.70 to 6.30
//
molecule: CS(=O)(=O)Nc1nccc2nc(-c3ccc(Oc4cc(Cl)c(OCCCl)c(C#N)c4)cc3)ccc12
subjectOfTest: androgen receptor (AR) (Homo sapiens, UniProt P10275, T878A)
pIC50: < 5.70
//
molecule: CC(C)(c1ccc(-c2cnn(CCNS(C)(=O)=O)c2)cc1)c1cc(Cl)c(OCCCl)c(C#N)c1
subjectOfTest: androgen receptor (AR) (Homo sapiens, UniProt P10275, T878A)
pIC50: 5.70 to 6.30
//
molecule: CC(C)(c1ccc(-c2ccc(N3CCC(NS(C)(=O)=O)C3)nc2)cc1)c1cc(Cl)c(OCCCl)c(C#N)c1 (stereo not drawn)
subjectOfTest: androgen receptor (AR) (Homo sapiens, UniProt P10275, T878A)
pIC50: > 6.30
//
molecule: CC(C)(c1ccc(OCc2cc(N3CCNCC3)nc(NS(C)(=O)=O)n2)cc1)c1cc(Cl)c(OCCCl)c(C#N)c1
subjectOfTest: androgen receptor (AR) (Homo sapiens, UniProt P10275, T878A)
pIC50: < 5.70
//
molecule: CN(c1nccc(Oc2ccc(C(C)(C)c3cc(Cl)c(OCCCl)c(C#N)c3)cc2)n1)S(C)(=O)=O
subjectOfTest: androgen receptor (AR) (Homo sapiens, UniProt P10275, T878A)
pIC50: 5.70 to 6.30
//
molecule: CN(c1ccc(OCc2ccnc(NS(C)(=O)=O)n2)cc1)c1cc(Cl)c(OCCCl)c(C#N)c1
subjectOfTest: androgen receptor (AR) (Homo sapiens, UniProt P10275, T878A)
pIC50: 5.70 to 6.30
//
molecule: CC(C)(c1ccc(OCc2cnc(NS(C)(=O)=O)nc2N)cc1)c1cc(Cl)c(OCCCl)c(C#N)c1
subjectOfTest: androgen receptor (AR) (Homo sapiens, UniProt P10275, T878A)
pIC50: > 6.30
//
molecule: CC(C)(c1ccc(OCc2ccnc(-n3cnc(S(N)(=O)=O)c3)n2)cc1)c1cc(Cl)c(OCCCl)c(C#N)c1
subjectOfTest: androgen receptor (AR) (Homo sapiens, UniProt P10275, T878A)
pIC50: 5.70 to 6.30

###

biological target: androgen receptor (AR) (Homo sapiens); test: Androgen-induced PSA-luciferase assay, Luciferase Assay B (cells stably expressing ARR2PB or PSA-firefly luciferase reporter, 384-well); conditions: Luciferase Assay B (Compounds A186-A219 and A221-A245); stable luciferase reporter cells, 1 h pretreatment, R1881 24 h, serum-free; read-out: PSA-Luc IC50 Range
pIC50: −log10 of the molar value.
pIC50 by entry:
attributeMeasured: pIC50

compoundSmiles: CS(=O)(=O)Nc1nccc(COc2ccc(N(CC(F)(F)F)c3cc(Cl)c(OCCCl)c(C#N)c3)cc2)n1
reportedMeasurement: > 6.30
--
compoundSmiles: CC(=O)N1CCN(c2nccc(COc3ccc(N(CC(F)(F)F)c4cc(Cl)c(OC5CC5)c(C#N)c4)cc3)n2)CC1
reportedMeasurement: > 6.30
--
compoundSmiles: CS(=O)(=O)Nc1cnc2cc(-c3ccc(N(CC(F)(F)F)c4cc(Cl)c(OC5CC5)c(C#N)c4)cc3)ccc2n1
reportedMeasurement: > 6.30
--
compoundSmiles: CS(=O)(=O)NCc1ccc(-c2ccc(Oc3cc(Cl)c(OC4CC4)c(C#N)c3)cc2)nn1
reportedMeasurement: 5.70 to 6.30
--
compoundSmiles: CS(=O)(=O)Nc1nccc(N2CCN(c3ccc(Oc4cc(Cl)c(OC5CC5)c(C#N)c4)cc3)CC2)n1
reportedMeasurement: > 6.30
--
compoundSmiles: CS(=O)(=O)NC12CC(COc3ccc(N(CC(F)(F)F)c4cnc(OC5CC5)c(C#N)c4)cc3)(C1)C2
reportedMeasurement: 5.70 to 6.30
--
compoundSmiles: CS(=O)(=O)Nc1cncc(N2CC(c3ccc(Oc4cc(Cl)c(OC5CC5)c(C#N)c4)cc3)C2)n1
reportedMeasurement: 5.70 to 6.30
